Molecular target: PEPT1 (Rattus norvegicus, UniProt P51574)
Sequence (P51574 whole entry): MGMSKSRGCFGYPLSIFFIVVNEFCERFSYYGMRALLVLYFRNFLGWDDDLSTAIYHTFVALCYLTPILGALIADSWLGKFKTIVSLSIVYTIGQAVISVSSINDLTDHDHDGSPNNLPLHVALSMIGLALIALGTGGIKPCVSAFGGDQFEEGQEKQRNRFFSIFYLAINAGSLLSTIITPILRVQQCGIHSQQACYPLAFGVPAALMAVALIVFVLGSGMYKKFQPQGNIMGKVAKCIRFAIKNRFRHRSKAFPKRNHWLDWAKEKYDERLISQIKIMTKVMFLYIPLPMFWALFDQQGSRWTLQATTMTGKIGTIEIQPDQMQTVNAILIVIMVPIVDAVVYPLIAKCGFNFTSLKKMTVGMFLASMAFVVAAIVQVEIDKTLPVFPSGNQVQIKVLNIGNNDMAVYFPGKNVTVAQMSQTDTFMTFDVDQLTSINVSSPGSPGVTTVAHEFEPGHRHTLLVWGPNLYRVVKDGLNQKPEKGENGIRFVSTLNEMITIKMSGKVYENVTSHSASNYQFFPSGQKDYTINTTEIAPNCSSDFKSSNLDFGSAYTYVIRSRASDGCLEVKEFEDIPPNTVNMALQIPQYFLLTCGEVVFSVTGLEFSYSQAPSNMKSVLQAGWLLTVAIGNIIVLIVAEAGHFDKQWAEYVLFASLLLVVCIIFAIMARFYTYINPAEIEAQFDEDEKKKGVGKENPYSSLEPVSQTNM
Test: Drug uptake in Pichia pastoris GS115 expressing rat recombinant PEPT1 at 5 uM after 30s by dual-channel liquid scintillation counting analysis relative to vector control
Format: ADME
Settings: read-out: FC
experimental_readout: uptake ratio at 0.5 min, 5 µM
Give bare numbers.

Q) I have this molecule here, [3H]C(C(=O)O)N(C)C(=O)CN (stereo unspecified) , and I need its recorded uptake ratio at 0.5 min, 5 µM.
A) 136
